Cited source: patent US20220213165A1

# Kd annotations
Target: T1, recombinant human EphB4 (rhEphB4) (human, UniProt P54760 16-539, limits assumed)
T1 construct: Bought protein; also called purified EphB4; immobilized EphB4
T1 sequence (looked up): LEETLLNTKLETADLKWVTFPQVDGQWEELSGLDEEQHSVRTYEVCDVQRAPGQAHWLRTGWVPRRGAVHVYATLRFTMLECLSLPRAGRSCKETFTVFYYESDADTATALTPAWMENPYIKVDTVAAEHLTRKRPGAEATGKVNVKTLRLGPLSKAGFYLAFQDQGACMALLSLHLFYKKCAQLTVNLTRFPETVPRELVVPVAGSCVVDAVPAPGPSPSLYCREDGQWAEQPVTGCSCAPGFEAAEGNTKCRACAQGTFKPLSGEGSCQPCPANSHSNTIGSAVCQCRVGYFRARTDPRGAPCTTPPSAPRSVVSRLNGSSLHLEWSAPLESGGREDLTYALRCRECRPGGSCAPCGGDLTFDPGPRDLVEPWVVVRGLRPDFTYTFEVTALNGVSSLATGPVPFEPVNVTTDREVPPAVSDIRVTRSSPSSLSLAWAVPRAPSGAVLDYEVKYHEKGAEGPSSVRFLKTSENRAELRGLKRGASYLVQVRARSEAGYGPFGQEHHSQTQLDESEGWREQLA
Test: SPR (BIACore), peptide 1.6-800 nM injected over immobilized rhEphB4
Square brackets hold non-standard residues; d marks the D form. Ends that are not written are not given here.

# annotated cases, reported Kd shown
binder: TNYLFSPNGPIAR[dA]W (also called TNYL-RAW with D-Ala at P14) [TNYLFSPNGPIAR(dA)W]
Kd: 43 nM
//
binder: TNYL[dF]SPNGPIARAW [B4-005, TNYL(dF)SPNGPIARAW]
Kd: 841 nM
//
binder: TNYLF[dS]PNGPIARAW [B4-006, TNYLF(dS)PNGPIARAW]
Kd: 7700 nM
//
binder: TNYLFSPNGPIARA[dW] (also called TNYL-RAW with D-Trp at P15) [TNYLFSPNGPIARA(dW)]
Kd: 8 nM

QUERY: Please supply the value of reported Kd for the item T[dN]YLFSPNGPIARAW (also called TNYL-RAW with D-Asn at P2) [T(dN)YLFSPNGPIARAW]
RESULT: 5 nM
